Cited source for all entries: the supplement of paper PMC4466140

- Target system: AgLsb4
- Test summary: SPOT peptide array binding signal intensity (averaged, normalized) (arbitrary units (background-subtracted, floor 0; scale differs between SH3 domains)); higher = stronger binding of the SH3 domain to the peptide
Kindly return Criterion met if reported SPOT peptide array binding signal intensity is no lower than 1000; return Criterion not met if it is lower.

Reference set (3 entries):
NENKKLPPAPTVFGL :: Criterion not met
RSRRSSFAYPQQVAI :: Criterion not met
TPTSGPPLLPPRNTM :: Criterion met

Please find the next binder below.
# input Given "SSSSTPPTLPPRRIE" , state whether its SPOT peptide array binding signal intensity is at least 1000.
# output Criterion met
